Just for reference, paper PMC7767506 is where these values come from.

The compounds listed here are annotated with their Ki.
# Tested on: Jurkat cell SOCE
# Assay explanation: Thapsigargin-induced SOCE in Jurkat cells, Indo-1 [Ca2+]cyt measurement
# Assay type: cell-based, human
# Condition summary: Jurkat cells, 1 µM thapsigargin 10 min, compound added 30 s prior to 1 mM CaCl2; read-out: Ki (µM), inhibition constant on SOCE
Express it in µM; write the number only.

Clc1ccc([B-]2(c3ccc(Cl)cc3)[NH2+]CCO2)cc1 [P13]
1.8

From here, focus on the item given below.
Prompt: Look up Ki: Fc1ccc([B-]2(c3ccc(F)cc3)[NH2+]CCO2)cc1 [P14]
Response: 5.4

----------
# System: Jurkat cell SOCE
# Assay explanation: Thapsigargin-induced SOCE in Jurkat cells, Indo-1 [Ca2+]cyt measurement
# Format: cell-based, human
# Condition summary: Jurkat cells, 1 µM thapsigargin 10 min, compound added 30 s prior to 1 mM CaCl2; read-out: Ki (nM), inhibition constant on SOCE
Readout kind: Ki (nM)
Express it in nM; write the number only.

Reference set (2 entries):
CCCCc1ccc([B-]2(c3ccc(CCCC)cc3)[NH2+]CCO2)cc1
641
Cc1ccc([B-]2(c3ccc(C)c(Cl)c3)[NH2+]CCO2)cc1Cl
294

From here, focus on the item given below.
Prompt: // fetch Jurkat cell SOCE Ki for NCCOB(c1ccc2sccc2c1)c1ccc2sccc2c1
Response: 374
